- experimental-target: ER-α (Homo sapiens)
- Construct: endogenous in cells; host or cells: MCF-7
- Sequence (P03372 whole entry): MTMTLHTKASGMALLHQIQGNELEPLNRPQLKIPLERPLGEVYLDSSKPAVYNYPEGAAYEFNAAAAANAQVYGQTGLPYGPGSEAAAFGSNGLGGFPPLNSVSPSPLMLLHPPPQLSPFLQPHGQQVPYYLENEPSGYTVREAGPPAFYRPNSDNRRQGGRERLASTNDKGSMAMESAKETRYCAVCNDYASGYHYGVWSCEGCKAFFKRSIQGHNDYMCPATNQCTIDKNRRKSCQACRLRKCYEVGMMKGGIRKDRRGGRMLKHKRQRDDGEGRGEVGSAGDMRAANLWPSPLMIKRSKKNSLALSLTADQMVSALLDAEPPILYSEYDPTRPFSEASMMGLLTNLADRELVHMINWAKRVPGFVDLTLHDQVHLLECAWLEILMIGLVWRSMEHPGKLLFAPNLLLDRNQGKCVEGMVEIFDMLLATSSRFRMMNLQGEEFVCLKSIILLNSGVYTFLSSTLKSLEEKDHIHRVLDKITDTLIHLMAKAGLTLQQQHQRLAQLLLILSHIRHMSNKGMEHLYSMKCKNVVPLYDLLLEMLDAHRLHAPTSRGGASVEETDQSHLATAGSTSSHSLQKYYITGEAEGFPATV
- assay-summary: Breast Cancer Cell ER-α In Cell Western Assay (SP1)
- Type: cell-based
- details: MCF-7 cells, 4 or 24 hr post compound addition, SP1 antibody; read-out: ER-α In Cell Western Assay (SP1) IC50
compounds and their reported DC50

1. CC/C(=C(/c1ccc(/C=C/C(=O)O)cc1)c1cccc(-c2ccn[nH]2)c1)c1ccccc1: > 100 nM

# DC50 lookup, item `O=C(O)/C=C/c1ccc(/C(=C(\c2ccccc2)C2CCC2)c2ccc(-c3cncs3)cn2)cc1`
> 100 nM

And what about the compound `CC/C(=C(/c1ccc(/C=C/C(=O)O)cc1)c1ccc(-c2cnn(C)c2)cc1)c1ccccc1` ?
≤ 100 nM

And what about the compound `COc1ccc(/C(=C(\c2ccc(/C=C/C(=O)O)cc2)c2ccc(-c3cncs3)cc2)C2CCC2)c(Cl)c1` ?
≤ 100 nM

And what about the compound `Cc1cscc1/C(=C(\c1ccc(/C=C/C(=O)O)cc1)c1ccc(-c2cn[nH]c2)cc1)C1CCC1` ?
≤ 100 nM

And what about the compound `O=C(O)/C=C/c1ccc(/C(=C(\c2ccccc2)C2CCC2)c2cccc(-c3cn[nH]c3)c2)cc1` ?
> 100 nM

And what about the compound `COc1ccc(/C(=C(\c2ccc(/C=C/C(=O)O)cc2)c2ccc(N3CCOCC3)cc2)C2CCC2)c(C)c1` ?
≤ 100 nM

And what about the compound `O=C(O)/C=C/c1ccc(/C(=C(\c2ccncc2Cl)C2CCC2)c2ccc(-c3cncs3)cc2)cc1` ?
≤ 100 nM

And what about the compound `CC/C(=C(/c1ccc(/C=C/C(=O)O)cc1)c1ccc(-c2nccs2)cc1)c1ccccc1` ?
≤ 100 nM

And what about the compound `N#Cc1ccc(/C(=C(\c2ccc(/C=C/C(=O)O)cc2)c2ccc(-c3cn[nH]c3)cc2)C2CCC2)c(Cl)c1` ?
≤ 100 nM

And what about the compound `CC/C(=C(/c1ccc(/C=C/C(=O)O)cc1)c1ccc(-c2cnco2)cc1)c1ccccc1` ?
≤ 100 nM

And what about the compound `CC/C(=C(/c1ccc(/C=C/C(=O)O)cc1)c1ccc(-c2cncs2)cc1)c1ccc2occc2c1` ?
≤ 100 nM

And what about the compound `CC/C(=C(/c1ccc(/C=C/C(=O)O)cc1)c1ccc(-c2cncs2)c(F)c1)c1ccccc1` ?
≤ 100 nM

And what about the compound `CC/C(=C(/c1ccc(/C=C/C(=O)O)cc1)c1ccc(-c2cscn2)cc1)c1ccccc1` ?
≤ 100 nM

And what about the compound `CC/C(=C(/c1ccc(/C=C/C(=O)O)cc1)c1ccc(-c2cncs2)cc1)c1cccc(OC)c1` ?
≤ 100 nM

And what about the compound `O=C(O)/C=C/c1ccc(/C(=C(\c2ccc(C(F)(F)F)cc2Cl)C2CCC2)c2ccc(N3CCOCC3)cc2)cc1` ?
≤ 100 nM

And what about the compound `O=C(O)/C=C/c1ccc(/C(=C(\c2ccccc2)C2CCC2)c2ccc(-c3ccncc3)cc2)cc1` ?
≤ 100 nM

And what about the compound `CC/C(=C(/c1ccc(/C=C/C(=O)O)cc1)c1cccc(-c2cscn2)c1)c1ccccc1` ?
> 100 nM

And what about the compound `O=C(O)/C=C/c1ccc(/C(=C(\c2ncccc2Cl)C2CCC2)c2ccc(N3CCOCC3)cc2)cc1` ?
≤ 100 nM
